assay target: Recombinant human IL-1beta (rhIL-1b) (human, UniProt P01584 117-269)
procedure details: cell-based or functional assay
endpoint label: % IL-6 production, supernatant 1:10 dilut. (%)
Write the answer as a number in %, unit excluded.

[[record]]
binder = "5.5.1 (antibody, IgG4, V domains shown, lambda; also called mAb 5.5.1; Ab 5.5.1) VH: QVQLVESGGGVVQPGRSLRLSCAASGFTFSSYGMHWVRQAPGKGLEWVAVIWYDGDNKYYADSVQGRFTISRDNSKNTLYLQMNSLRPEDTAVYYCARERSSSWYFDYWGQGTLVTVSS VL: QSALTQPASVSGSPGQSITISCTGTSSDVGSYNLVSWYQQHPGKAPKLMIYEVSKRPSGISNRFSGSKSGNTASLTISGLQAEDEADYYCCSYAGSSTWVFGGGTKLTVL"
measured_result = 3

[[record]]
binder = "9.54.1 (antibody, human IgG4, V domains shown, lambda; also called 9.54.2) VH: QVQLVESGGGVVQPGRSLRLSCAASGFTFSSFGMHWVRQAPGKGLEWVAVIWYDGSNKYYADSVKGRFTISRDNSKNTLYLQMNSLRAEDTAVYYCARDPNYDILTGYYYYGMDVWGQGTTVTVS VL: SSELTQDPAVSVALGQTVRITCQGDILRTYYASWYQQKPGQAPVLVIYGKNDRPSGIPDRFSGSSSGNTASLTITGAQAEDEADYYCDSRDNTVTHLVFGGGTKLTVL"
measured_result = 21


Now let's try a different one.
Input: Item 9.26.1 (antibody, human IgG4, V domains shown, lambda; also called 9.26.3) VH: QVQLVESGGGVVQPGRSLRLSCAASGFTFNNYGMHWVRQAPGKGLECVAVIWYDGGNKYYADSVKGRFAISRDNSKNTLYLQMNSLRAEDTAVYYCTAVTKLNYYYGMDVWGQGTTVTVS VL: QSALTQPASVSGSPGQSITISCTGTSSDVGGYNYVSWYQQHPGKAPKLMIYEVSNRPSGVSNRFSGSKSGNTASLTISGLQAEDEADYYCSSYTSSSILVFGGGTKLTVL has what recorded % IL-6 production, supernatant 1:10 dilut.?
Output: 27

Where do the numbers come from? From patent US20070065439A1.
